- study.system: α1B-AR (Mesocricetus auratus)
- Construct: expressed in transfected cells; host or cells: COS-1
- Sequence (P18841 whole entry): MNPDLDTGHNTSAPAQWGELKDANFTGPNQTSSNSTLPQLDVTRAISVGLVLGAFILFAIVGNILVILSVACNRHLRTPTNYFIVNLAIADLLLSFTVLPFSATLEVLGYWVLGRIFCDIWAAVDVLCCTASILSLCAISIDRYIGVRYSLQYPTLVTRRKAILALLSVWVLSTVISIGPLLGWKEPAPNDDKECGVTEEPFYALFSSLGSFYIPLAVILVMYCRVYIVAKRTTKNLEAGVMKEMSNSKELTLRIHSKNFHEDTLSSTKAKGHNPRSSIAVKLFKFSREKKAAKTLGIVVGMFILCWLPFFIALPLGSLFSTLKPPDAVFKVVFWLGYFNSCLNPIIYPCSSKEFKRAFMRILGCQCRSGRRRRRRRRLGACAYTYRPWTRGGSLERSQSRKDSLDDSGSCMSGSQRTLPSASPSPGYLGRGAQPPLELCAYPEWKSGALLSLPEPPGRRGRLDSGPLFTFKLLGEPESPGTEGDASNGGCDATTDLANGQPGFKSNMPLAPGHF
- assay.name: [3H]Prazosin competition/saturation binding on COS-1 membranes expressing α1B-AR
- Design: species or system rodent
- measurement.setup: [3H]Prazosin 200 pM, COS-1 membranes; pKi = -Log Ki; read-out: pKi α1B-AR (converted)
- Procedure: COS-1 cells (American Type Culture Collection, Manassas, VA) were cultured in Dulbecco's modified Eagle's medium (DMEM) supplemented with 10% (v/v) heat inactivated fetal bovine serum (FBS), 100 µg ml^−1 penicillin and 100 µg ml^−1 streptomycin. […] Membranes were prepared as described previously. […] Protein concentration was determined using Bradford reagent (Sigma, St Louis, MO, USA). […]
measurement.kind: Ki (µM)
The figure you give is taken to be in µM; do not add the unit.

CCN(Cc1ccccc1)CC(O)c1cccc(Cl)c1 (stereo not shown) : 9.55
CCCCC(O)CN1CCC(Cc2ccccc2)CC1 (stereo not shown) : 13.5
COc1cc2c(cc1OC)C1CC(C)=C(c3ccccc3)CN1CC2 (stereo not shown) : 11

As a next step, examine the compound that follows.
Ask: Need Ki of CN(C)CC(C(=O)c1ccc(Br)cc1)C(Br)c1ccccc1 (stereo not shown) , thanks.
Result: 17
